- Protocol: Cell Counting Kit-8 assay of cell viability on P815 cells
- Assay type: cell-based
- Measurement Parameters: mouse, P815 mastocytoma cells, 2 mg/mL, read-out: Cell viability (%) Mean ± SD
Endpoint: viability at 18 h, 2 mg/mL (%)
Report the figure in % without appending any unit label.

Looking up C=C1C(=O)O[C@H]2/C=C(\C)CC3C=C(CC/C=C(\C)CC[C@H]12)C(=O)O3 (stereo partly shown) [AR100-DS1, Ovatodiolide] , I found its viability at 18 h, 2 mg/mL recorded as 39.5
